Item-by-item account of Hemolysis at 100 μg/ml
# System: human red blood cells (hRBC)
# testDescription: Hemolysis of human red blood cells
# Type: cell-based
# conditionParameters: red cells of human, 1 h, 100
Where a SMILES comes first, the peptide text is derived from it. [ ]: non-standard residue; d: D form. Cha = N[C@@H](CC1CCCCC1)C(=O)O; Agp = N=C(N)NC[C@H](N)C(=O)O; Tle = CC(C)(C)[C@H](N)C(=O)O; dDab = NCC[C@@H](N)C(=O)O; Orn = NCCC[C@H](N)C(=O)O; Dab = NCC[C@H](N)C(=O)O
Just the number please, in %, no unit attached.

>>> value("C[C@@H]1NC(=O)[C@H](C(C)(C)C)NC(=O)[C@H](CCN)NC(=O)[C@H](Cc2c[nH]c3ccccc23)NC(=O)[C@H](CCN)NC(=O)[C@H](CCN)NC(=O)[C@H](CCCN)NC(=O)[C@H](CCN)NC(=O)[C@H](Cc2ccc(O)cc2)NC(=O)[C@H](CO)NC(=O)[C@H](Cc2c[nH]c3ccccc23)NC(=O)[C@@H]2CCCN2C(=O)[C@H]2CCCN2C(=O)[C@H](CO)NC1=O [compound 74] (cyclo(WSY[Dab][Orn][Dab][Dab]W[Dab][Tle]AS[dP]P))")
0

Measured Hemolysis at 100 μg/ml, C[C@@H]1NC(=O)[C@H](Cc2c[nH]c3ccccc23)NC(=O)[C@@H]2CCCN2C(=O)[C@H]2CCCN2C(=O)[C@H](CO)NC(=O)[C@H](CNC(=N)N)NC(=O)[C@H](C(C)(C)C)NC(=O)[C@H](CCN)NC(=O)[C@H](Cc2c[nH]c3ccccc23)NC(=O)[C@H](CCN)NC(=O)[C@@H](CCN)NC(=O)[C@H](CCCN)NC(=O)[C@H](CCN)NC(=O)[C@H](CC2CCCCC2)NC1=O [compound 23] (cyclo(WA[Cha][Dab][Orn][dDab][Dab]W[Dab][Tle][Agp]S[dP]P)) : 1.7
